- Test system: NCI-H23 lung
- measurement-notes: NCI-60 one-dose screen, 48 h (100 = growth as untreated, 0 = no growth, -100 = all killed)
- experimental-setup: 10 µM unless noted
- Procedure: Growth inhibition of the NCI-H23 human Non-Small Cell Lung tumor cell line is measured as a screen for anti-cancer activity. Cells are grown in 96 well plates and exposed to the test compound for 48 hours. Compounds are tested at a single concentration, which is 10^-5 M for most compounds. The reported endpoint is percent growth (GI% or GIPRCNT), where numbers from 0 - 100% represent growth inhibition, and numbers from -100% - 0 represent cell death. […]
Compounds without any hit were thinned out: in the full panel of roughly 83,000, 20% have a hit.
value-kind: growth (%)
Use % as the unit, but write only the number.

COC(=O)Nc1ccc(NC(=O)OC)cc1    97.6
Cn1c(COC(=O)NCCN2CCOCC2)nc2c(N3CCOCC3)nc(-c3ccccc3)nc21    -48.2
CC1(C)NCCC[C@]2(C)[C@H]3CC=C4[C@@H]5C[C@@](C)(CO)CC[C@]5(C)CC[C@@]4(C)[C@]3(C)CC[C@@H]12    81.3
COC(=O)C(c1ccccc1)C(CC(=O)c1ccccc1)c1ccccc1 (centres undefined)    78.3

Here is another compound to look at.
[ask] Consider the compound C=C(C)[C@@H]1CC[C@]2(C=O)CC[C@]3(C)[C@H](CC[C@@H]4[C@@]5(C)CCCNC(C)(C)[C@@H]5CC[C@]43C)[C@@H]12 and give its measured growth.
[reply] 78.7
